Test: reversal of MRP1-mediated doxorubicin resistance, pilot screen, H69AR cells, doxorubicin co-treatment (AID 601)
Details: H69AR cells + 2 uM doxorubicin, CellTiter-Glo, 72 h; at 10 µM; stronger effect = higher value
ENDPOINT: differential viability (reversal) (%)

INSERT INTO assay_data (cpd_smiles, readout_unit, reading) VALUES
  ('CCOC(=O)c1c(C)oc2c1c1c(c3ccccc32)OCN(Cc2cccnc2)C1', '%', 29.8),
  ('CN1CCN(C2=Nc3cc(Cl)ccc3Nc3ccccc32)CC1', '%', 17),
  ('COC(=O)c1[nH]c2ccc(C)cc2c1NC(=O)CN1CCN(C(=O)c2ccccc2)CC1', '%', 33.4);

###

Catalogue of compounds with associated viability
Assay: reversal of MRP1-mediated doxorubicin resistance, pilot screen, H69AR cells, doxorubicin co-treatment (AID 601)
Details: H69AR cells, CellTiter-Glo, 72 h; compound alone cytotoxicity; at 10 µM
ENDPOINT: viability (%)

INSERT INTO results (compound, endpoint, readout_unit, reading) VALUES
  ('O=C(COc1ccccc1Cl)N1CCCC1', 'viability', '%', 91.9),
  ('Cc1cccc(-n2c(=O)cc(N3CCN(c4ccc(F)cc4)CC3)[nH]c2=O)c1', 'viability', '%', 71.9),
  ('O=C1C2C3C=CC(C3)C2C(=O)N1CNc1ccc(O)cc1 (configuration not stated)', 'viability', '%', 90.7),
  ('O=C(NCc1ccc(Cl)cc1)c1ccc(COCC(F)(F)F)o1', 'viability', '%', 101),
  ('CC(C)OC(=O)c1cc(NC(=O)C2C3CCC(O3)C2C(=O)O)cc(C(=O)OC(C)C)c1 (configuration not stated)', 'viability', '%', 92.9),
  ('CCCc1ccc(C(C)NC(=O)c2cnccn2)cc1 (configuration not stated)', 'viability', '%', 100),
  ('COc1cccc(Nc2c(F)c(F)c(F)c(F)c2C(=O)O)c1', 'viability', '%', 99.7),
  ('O=C1c2oc3ccccc3c(=O)c2C(c2cccnc2)N1Cc1ccco1 (configuration not stated)', 'viability', '%', 87.8),
  ('Cc1ccccc1-c1nc2ccccc2c(=O)n1C1CCS(=O)(=O)C1 (configuration not stated)', 'viability', '%', 90.3),
  ('Cc1cccc(NC(=O)CC2CCC2)c1', 'viability', '%', 99.8),
  ('CNc1ccc(C(O)(C(F)(F)F)C(F)(F)F)cc1C(O)(C(F)(F)F)C(F)(F)F', 'viability', '%', 80.7),
  ('O=c1[nH]c2ccc(S(=O)(=O)N3CCN(C4CCCCC4)CC3)cc2[nH]c1=O', 'viability', '%', 103),
  ('O=C(O)c1ccc(NC(=O)c2cccs2)cc1', 'viability', '%', 92.5),
  ('O=C(O)Cc1ccccc1C(=O)O', 'viability', '%', 95.1),
  ('CCOC(=O)N1CCC(NC(=O)CCC(=O)N2CC(C)Oc3ccc(Cl)cc32)CC1 (configuration not stated)', 'viability', '%', 92.5),
  ('O=C(CN1CCC(n2nnc3ccccc32)CC1)Nc1ccc2c(c1)CCC2', 'viability', '%', 89.3),
  ('CCOc1ccc2oc(-c3ccccc3)c(C(=O)N3CCN(CCO)CC3)c2c1', 'viability', '%', 72.9),
  ('CN(C(=O)C1CCCO1)c1nnc(-c2ccncc2)s1 (configuration not stated)', 'viability', '%', 100),
  ('CN(C)c1ccc(O)c2c1CC1CC3[C@@H](N(C)C)C(=O)C(C(N)=O)=C(O)[C@]3(O)C(=O)C1=C2O (some centres not stated)', 'viability', '%', 32.7),
  ('c1ccc(Cn2nnnc2CN2CCCC2)cc1', 'viability', '%', 99.4),
  ('CN(C)c1ccc(NC(=O)c2ccncc2)c2ccccc12', 'viability', '%', 101),
  ('O=C(NCC1CCCO1)c1cccc(N2C(=O)C3C4C=CC(C4)C3C2=O)c1 (configuration not stated)', 'viability', '%', 100),
  ('OCc1nc2ccccc2n1CCCOc1ccccc1', 'viability', '%', 103),
  ('CN(C)CCN(Cc1ccccc1)c1ccccn1', 'viability', '%', 101),
  ('CN(C(=O)C1CCOC1)c1nnc(-c2cccnc2)s1 (configuration not stated)', 'viability', '%', 88.5),
  ('Cc1oc(-c2ccc(Cl)cc2)cc1-c1nn2c(-c3ccoc3C)nnc2s1', 'viability', '%', 83.7),
  ('CN(C)/C=c1\sc2c(C#N)cc(C(=O)c3ccc(Br)cc3)n2c1=O', 'viability', '%', 76.6),
  ('CC(=O)NC(C)C(=O)OCc1ccc(Cl)cc1Cl (configuration not stated)', 'viability', '%', 103),
  ('Cc1occc1-c1nnc(SCC(=O)N2CCOCC2)n1Cc1ccco1', 'viability', '%', 101),
  ('Cc1ccc2occ(CN3CCN(c4ccccc4)CC3)c(=O)c2c1', 'viability', '%', 87.5),
  ('O=C1CCc2cc(OCCCCc3nnnn3C3CCCCC3)ccc2N1', 'viability', '%', 101),
  ('CC(=O)[C@@]1(O)CC[C@H]2[C@@H]3C[C@H](C)C4=CC(=O)CC[C@]4(C)[C@H]3CC[C@@]21C', 'viability', '%', 2.32);

###

Assay: growth inhibitors of H69AR lung tumor, primary screen, human, duplicate replicates (AID 580);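 further: 100% = mean luminescence of untreated wells and 0% = no signal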
Conditions: H69AR lung tumor cells viability, ATP luminescence, 72 h; at 10 µM; stronger effect = lower value
ENDPOINT: viability (%)

INSERT INTO assay_data (compound, readout_unit, reading) VALUES
  ('Cc1cc(NC(=O)c2ccc3nc(-c4ccccc4)c(-c4ccccc4)nc3c2)no1', '%', 13.4),
  ('Nc1cc(=O)[nH]c(SCC(=O)Nc2ccc(Br)cc2)n1', '%', 90.5),
  ('CCOc1cccc(Oc2ccc(C(F)(F)F)cn2)c1', '%', 99.9),
  ('O=C(COC(=O)c1cccc(S(=O)(=O)N2CCc3ccccc32)c1)NC1CCS(=O)(=O)C1 (centres undefined)', '%', 102),
  ('CCOC(=O)N1CCN(C(=O)c2ccc(N3C(=O)CCC3=O)cc2)CC1', '%', 105),
  ('CC1CC(C)CN(CC(=O)Nc2ccc(S(N)(=O)=O)cc2)C1 (centres undefined)', '%', 84.9),
  ('Nc1nnc(Cc2ccc(Cl)cc2)s1', '%', 102),
  ('CC1CNCCN1S(=O)(=O)c1cccc2cnccc12 (centres undefined)', '%', 102),
  ('Cc1occc1-c1nnc(SCC(=O)N2CCOCC2)n1Cc1ccco1', '%', 101);

###

Test: SK-BR-3 cell growth inhibitors, pilot screen, 24 h, human (AID 572);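 further: compound exposure lasted between 18 and 24 h rather than exactly 24 h; 100% = carrier-treated control wells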
Conditions: SK-BR-3 viability, CellTiter-Glo luminescence, at 10 µM, stronger effect = lower value
Activity calls are given as the source filed them.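 Rule for the calls: active = viability at or below 10% of carrier control in both of two separate runs; inconclusive = viability at or below 10% in only one of the two runs; inactive = the rest.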
ENDPOINT: viability

INSERT INTO results (compound, endpoint, reading) VALUES
  ('Nc1ncnc2oc(-c3ccco3)c(-c3ccco3)c12', 'viability', '96.5% (inactive)'),
  ('CCOC(=O)c1ccc(NS(=O)C23CC4CC(CC(C4)C2)C3)cc1 (stereo unspecified)', 'viability', '95.5% (inactive)'),
  ('Cc1nnc(N(C)C(=O)c2cccnc2)s1', 'viability', '110% (inactive)'),
  ('COc1cccc(N2CCN(CC(=O)c3c[nH]c4ccc(OC)cc34)CC2C)c1 (stereo unspecified)', 'viability', '104% (inactive)'),
  ('c1cncc(-c2nc3c4ccccc4nc(N4CCC(N5CCCCC5)CC4)n3n2)c1', 'viability', '93.5% (inactive)'),
  ('CCN(CC)c1ccc(C(=O)n2cnc3ccccc32)cc1', 'viability', '111% (inactive)'),
  ('CC(C)N(Cc1nc(-c2ccc(Cl)cc2)no1)C(=O)CN(C)S(=O)(=O)c1ccc(Cl)cc1', 'viability', '95% (inactive)'),
  ('O=C1c2ccccc2C(=O)N1CCN1CCCCC1', 'viability', '98% (inactive)'),
  ('CSc1nnc(-c2ccccc2)n1C', 'viability', '121% (inactive)'),
  ('COc1cccc(NC(=O)C2CCCN2C(=O)Nc2cccc(F)c2)c1 (stereo unspecified)', 'viability', '96% (inactive)'),
  ('CNC[C@H](O)c1cccc(O)c1', 'viability', '131% (inactive)'),
  ('COc1cccc(-n2nnc3c(=O)n(Cc4cccc(F)c4)cnc32)c1', 'viability', '96.5% (inactive)'),
  ('CN(C)CCN(Cc1ccccc1)c1ccccn1', 'viability', '100% (inactive)'),
  ('CCN(CC)CCCN1C(=O)C(O)=C(C(C)=O)C1c1cccc(OC)c1 (stereo unspecified)', 'viability', '97% (inactive)'),
  ('COc1ccc(Nc2nc(-c3sc(N)nc3C)cs2)cc1', 'viability', '93% (inactive)'),
  ('O=C(CN(c1ccccc1)S(=O)(=O)c1ccccc1)N1CCN(Cc2ccc3c(c2)OCO3)CC1', 'viability', '104% (inactive)');
